# TEST_DESCRIPTION: blockers of RIG-like receptor reporter activation – cell-based, Sendai virus stimulus, luciferase, 10K MLSCN set, TLR/RLR signaling modifier project, primary screen (AID 602276);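 note: firefly luciferase from ISG56 promoter only with Renilla not read in this screen; 0% = Sendai virus plus DMSO and 100% = medium plus DMSO without virus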
# RUN_PARAMETERS: HEK293 RL24 IRF3 luciferase reporter, at 10 µM, active compounds read high
Catalogue of inhibition readings, one per entry.

{"COMPOUND": "CCCCS(=O)(=O)NC1=NCN(CCOC(=O)c2ccccc2)CN1", "inhibition [%]": 13.9}
{"COMPOUND": "CC(C)n1c(CN2CCN(C)CC2)nc2c1c(=O)n(C)c(=O)n2C", "inhibition [%]": 22.2}
{"COMPOUND": "CCOc1ccc(N(CC(=O)Nc2ccc(C)c(C)c2)S(=O)(=O)c2c(C)noc2C)cc1", "inhibition [%]": 13.3}
{"COMPOUND": "CN1/C(=C\\C(=O)Nc2cccnc2)c2ccccc2CC1(C)C", "inhibition [%]": 18.7}
{"COMPOUND": "COCC(C)NC(=O)NC(=O)c1ccc(Cl)cc1 (stereo not drawn)", "inhibition [%]": 14.1}
{"COMPOUND": "O=C(CSc1ncc(-c2ccc(F)cc2)[nH]1)N1CCCCC1", "inhibition [%]": -13}
{"COMPOUND": "Cc1ccc(S(=O)(=O)NCC(=O)N(CC(=O)NCc2ccccc2)CC2CCCO2)cc1 (stereo not drawn)", "inhibition [%]": 12.2}
{"COMPOUND": "c1ccc2oc(SCc3cn4ccccc4n3)nc2c1", "inhibition [%]": -46.4}
{"COMPOUND": "COC(=O)c1cn(NC(=O)c2cccnc2)c(=O)c2ccccc12", "inhibition [%]": 10.1}
{"COMPOUND": "Cc1cc(C)nc(/N=C2\\NC(=O)CC(C(=O)O)N2c2ccc(Cl)cc2)n1 (stereo not drawn)", "inhibition [%]": 11.6}
{"COMPOUND": "O=C(NCC(c1cccnc1)N1CCOCC1)c1ccco1 (stereo not drawn)", "inhibition [%]": 15.9}
{"COMPOUND": "O=C(O)C1CC=CCC1C(=O)Nc1cccc(C(=O)N2CCCCC2)c1 (stereo not drawn)", "inhibition [%]": 0.562}
{"COMPOUND": "COc1ccc(C)cc1NS(=O)(=O)c1ccc(NS(=O)(=O)c2ccc(NC(C)=O)cc2)cc1", "inhibition [%]": 19.9}
{"COMPOUND": "CCN1CCCC1CNC(=O)CS(=O)(=O)Cc1nc(-c2ccccc2C)oc1C (stereo not drawn)", "inhibition [%]": 5.3}
{"COMPOUND": "O=C(NCC1COc2ccccc2O1)C1CCCN(S(=O)(=O)c2cnc[nH]2)C1 (stereo not drawn)", "inhibition [%]": 4.57}
{"COMPOUND": "Cc1nn(S(=O)(=O)N2CCCCC2)c(C)c1Br", "inhibition [%]": 1.73}
{"COMPOUND": "N#CCCCCn1c(-c2cncs2)nc2ccccc21", "inhibition [%]": 14.5}
{"COMPOUND": "CCOC(=O)c1cc(NC(=O)SCC(=O)O)c(C)nc1C", "inhibition [%]": 7.76}
{"COMPOUND": "O=S(=O)(NCc1cn2ccccc2n1)c1cc(F)ccc1F", "inhibition [%]": -0.696}
{"COMPOUND": "O=C(Nc1ccccc1C(=O)N1CCOCC1)C1CCC(=O)N1C1CCCC1 (stereo not drawn)", "inhibition [%]": 4.86}
{"COMPOUND": "CC(=O)Nc1ccc(S(=O)(=O)Nc2nc3c(s2)CCCC3)cc1", "inhibition [%]": 5.19}
{"COMPOUND": "Cc1ccc(-c2cc(C(F)(F)F)n3nc(C(=O)N4CCCC4)cc3n2)cc1", "inhibition [%]": -0.996}
{"COMPOUND": "COC(=O)c1cccc(NC(=O)CSc2nnc(COc3ccccc3)n2C)c1", "inhibition [%]": 11.9}
